tested.system: 5-hydroxytryptamine receptor 1A (Homo sapiens)
assay.notes: Intrinsic activity at human 5-HT1A receptor expressed in CHO cells assessed as increase of serotonin-induced [35S]GTPgammaS binding relative to serotonin
Format: functional, cell-based
property.name: Emax

Worked examples follow.
INSERT INTO measurements (compound, experimental_result) VALUES
  ('Cc1ccc(CNCC2(F)CCN(C(=O)c3ccco3)CC2)nc1', '81%'),
  ('Cc1ccc(CNCC2(F)CCN(C(=O)C34CC5CC(CC(Cl)(C5)C3)C4)CC2)nc1', '91%'),
  ('CSc1ccc(C(=O)N2CCC(F)(CNCc3ccc(C)cn3)CC2)s1', '91%'),
  ('Cc1ccc(CNCC2(F)CCN(C(=O)C34CCCC(CCC3)C4)CC2)nc1', '96%'),
  ('Cc1ccc(CNCC2(F)CCN(C(=O)c3ccc4ccccc4c3)CC2)nc1', '110%');

So what does the record say about Emax for COc1c(C(=O)N2CCC(F)(CNCc3ccc(C)cn3)CC2)csc1Cl ? 102%

So what does the record say about Emax for Cc1ccc(CNCC2(F)CCN(C(=O)c3ccc4[nH]ccc4c3)CC2)nc1 ? 94%

So what does the record say about Emax for Cc1ccc(CNCC2(O)CCN(C(=O)c3ccc(F)c(Cl)c3)CC2)nc1 ? 109%

So what does the record say about Emax for Cc1ccc(CNCC2(F)CCN(C(=O)C34CC5CC(CC(C5)C3)C4)CC2)nc1 ? 98%

So what does the record say about Emax for Cc1ccc(CNCC2(F)CCN(C(=O)c3cc(Br)cs3)CC2)nc1 ? 116%

So what does the record say about Emax for Cc1ccc(CNC[C@@]2(O)C[C@H]3CC[C@@H](C2)N3C(=O)c2ccccc2)nc1 (stereo in doubt; 38) ? < 10%

So what does the record say about Emax for Cc1ccc(CNCC2(F)CCN(C(=O)c3ccoc3)CC2)nc1 ? 99%

So what does the record say about Emax for Cc1ccc(CNCC2(F)CCN(C(=O)c3cc4ccccc4[te]3)CC2)nc1 ? 46%

So what does the record say about Emax for Cc1ccc(CNCC2(F)CCN(C(=O)C34CC5CC(CC(O)(C5)C3)C4)CC2)nc1 ? 90%

So what does the record say about Emax for Cc1ccc(CNCC2(O)CC3CCC(C2)N3C(=O)c2ccc(F)c(Cl)c2)nc1 (stereo unspecified) ? 121%

So what does the record say about Emax for Cc1ccc(CNCC2(O)CC3CCC(C2)N3C(=O)c2ccsc2)nc1 (stereo unspecified) ? 101%

So what does the record say about Emax for Cc1ccc(CNCC2(F)CCN(C(=O)c3ccsc3)CC2)nc1 ? 95%

So what does the record say about Emax for Cc1ccc(CNCC2(F)CCN(C(=O)C34CC5CC(CC3C5)C4)CC2)nc1 ? 96%

So what does the record say about Emax for Cc1ccc(CN(C)CC2(F)CCN(C(=O)c3ccc(F)c(Cl)c3)CC2)nc1 ? 77%

So what does the record say about Emax for Cc1ccc(CNCC2(F)CCN(C(=O)c3sc(Br)c4c3OCCO4)CC2)nc1 ? 102%

So what does the record say about Emax for Cc1ccc(CNCC2(F)CCN(C(=O)c3scc4c3CCCC4)CC2)nc1 ? 104%
